Data origin, for the record: patent US4210749A

List of LD50 values.
assay: I.P. symptomatology (highest tolerated dose, median lethal dose), Table IV; format: in vivo; settings: in vivo, ip
Structures can show the parent of a compound that is named as a salt.

Data point: C[C@@H]1Cc2ccccc2CCN1C (single isomer, unassigned) [Example 54, hydrochloride] ; LD50 = 60 mg/kg

Data point: COc1ccc2c(c1)CCN(C)CC2 [Example 18] ; LD50 = 80 mg/kg

Data point: COc1ccc2c(c1)CCN(CCN1CCN(c3ccccc3)CC1)CC2 [Example 31] ; LD50 = 80 mg/kg

Data point: Oc1ccc2c(c1)CCN(C[C@@H]1C[C@H]1c1ccccc1)CC2 (relative stereo) [Example 30] ; LD50 = > 1000 mg/kg

Data point: COc1ccc2c(c1)CCN(CCc1ccccc1)CC2 [Example 24] ; LD50 = > 200 mg/kg

###

assay: Narcotic antagonism I.P., Table IV; format: in vivo
Structures can show the parent of a compound that is named as a salt.
readoutKind: Narcotic Antagonism

These recorded examples may help you get a feel for the data.
>>> obsvalue("CC(C)=CCN1CCc2ccc(O)cc2CC1")
"Positive"
>>> obsvalue("C=CCN1CCc2ccc(OC)cc2CC1")
"Positive"
>>> obsvalue("COc1ccc2c(c1)CC(C)N(C)CC2 (single isomer, unassigned; (+)) [Example 62, hydrochloride]")
"Negative"
>>> obsvalue("CC(C)=CCN1CCc2ccc(OC(=O)C34CC5CC(CC(C5)C3)C4)cc2CC1 [Example 6, hydrochloride]")
"Positive"
>>> obsvalue("COc1ccc(CCN2CCc3ccc(OC)cc3CC2C)cc1 (centres unmarked) [Example 61, hydrochloride]")
"Negative"
>>> obsvalue("C[C@@H]1Cc2ccccc2CCN1C (single isomer, unassigned) [Example 54, hydrochloride]")
"Negative"
>>> obsvalue("c1ccc2c(c1)CCN(CC1CC1)CC2 [Example 37, hydrochloride]")
"Negative"

Next molecule, Narcotic Antagonism to be filled in.
Data point: COc1ccc2c(c1)CC(C)N(CC=Cc1ccccc1)CC2 (centres unmarked) [Example 44, hydrochloride] ; Narcotic Antagonism = Negative

###

List of MTD values.
test: I.P. symptomatology (highest tolerated dose, median lethal dose), Table IV; type: in vivo; conditions: in vivo, ip, read-out: HTD (highest tolerated dose)
Counter-ions that a name gives are not always drawn.
State the answer as a number, implicitly in mg/kg.

Data point: C[C@H]1Cc2ccccc2CCN1C (single isomer, unassigned) [Example 50, hydrochloride] ; MTD = 10

Data point: COc1ccc2c(c1)CCN(CC=C(C)C)CC2 [Example 3] ; MTD = 30

Data point: CC(C)=CCN1CCc2ccc(OC(=O)C34CC5CC(CC(C5)C3)C4)cc2CC1 [Example 6, hydrochloride] ; MTD = 10

Data point: CC(C)=CCN1CCc2ccc(O)cc2CC1C (centres unmarked) [Example 34, hydrochloride] ; MTD = 10

Data point: C=CCN1CCc2ccc(OC)cc2CC1C (centres unmarked) [Example 38, hydrochloride] ; MTD = 10

###

experiment: I.P. symptomatology (highest tolerated dose, median lethal dose), Table IV; format: in vivo; details: in vivo, ip, read-out: HTD (highest tolerated dose)
Where a name gives a salt, the structure may show the parent alone.
List of MTD values.
State the answer as a number, implicitly in mg/kg.

These recorded examples may help you get a feel for the data.
>>> obsvalue("COc1ccc2c(c1)CC(C)N(CC1CC1)CC2 (stereo not drawn) [Example 42, hydrochloride]")
10
>>> obsvalue("C[C@H]1Cc2ccccc2CCN1 (single isomer, unassigned) [Example 48]")
30
>>> obsvalue("CCCN1CCc2ccc(OC)cc2CC1 [Example 22]")
30
>>> obsvalue("CC(C)=CCN1CCc2ccc(O)cc2CC1 [Example 4]")
30

Next compound, MTD to be filled in.
Data point: CC1Cc2cc(O)ccc2CCN1C (single isomer, unassigned; (+)) [Example 57, hydrochloride] ; MTD = 10
